Target: MAGI1_2, Q96QZ7
Sequence (Q96QZ7 456-580): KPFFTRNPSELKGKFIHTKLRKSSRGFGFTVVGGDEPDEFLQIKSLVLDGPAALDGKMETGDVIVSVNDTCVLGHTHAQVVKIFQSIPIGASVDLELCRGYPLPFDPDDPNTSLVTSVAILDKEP
Assay: holdup assay
Design: key: below the threshold = too weak to quantify, mostly under pKd 3.1 to 4
Conditions: plain residues with an end cap or a label only (N-terminal biotin on a linker: ttds)
VALUE KIND: pKd

                           binder            obs_value
 0  PPRQRSETQV [HPV82-E6, Q9IR59]                 5.54
 1  GRLLGLETNV [ARHGEF26, Q96DR7]                 3.65
 2      SHSSKGETAV [FZD7, O75084]                  3.9
 3    PSRDRKETSI [RALBP1, Q15311]                 3.91
 4    KLVIKTETTV [RASSF6, Q6ZTQ3]                 4.82
 5  SRSRRRETAL [HPV33-E6, P06427]                 5.67
 6      SGGKRKETLV [NET1, Q7Z628]                 5.72
 7       KQVVPFSSSV [GDA, Q9Y2T3]  below the threshold
 8   SSIDLWETAL [SLC15A5, A6NIM6]  below the threshold
 9    GARVSKETPL [MAPK12, P53778]                 3.76
10      PFRSRSPSEV [GPR6, P46095]  below the threshold
11    QRPYRRESEI [KCNJ12, Q14500]                    4
12     DLDEEEDTHL [PODXL, O00592]  below the threshold
13   NPDALPETLV [ARHGAP6, O43182]  below the threshold
14      FVETQHQTQV [FAT3, Q8TDW7]                 3.93
